- testTarget: PfDHFR N51I + C59R + S108N (Plasmodium falciparum, UniProt A7UD81, C59R/N51I/S108N)
- Sequence (A7UD81 whole entry N51I/C59R/S108N): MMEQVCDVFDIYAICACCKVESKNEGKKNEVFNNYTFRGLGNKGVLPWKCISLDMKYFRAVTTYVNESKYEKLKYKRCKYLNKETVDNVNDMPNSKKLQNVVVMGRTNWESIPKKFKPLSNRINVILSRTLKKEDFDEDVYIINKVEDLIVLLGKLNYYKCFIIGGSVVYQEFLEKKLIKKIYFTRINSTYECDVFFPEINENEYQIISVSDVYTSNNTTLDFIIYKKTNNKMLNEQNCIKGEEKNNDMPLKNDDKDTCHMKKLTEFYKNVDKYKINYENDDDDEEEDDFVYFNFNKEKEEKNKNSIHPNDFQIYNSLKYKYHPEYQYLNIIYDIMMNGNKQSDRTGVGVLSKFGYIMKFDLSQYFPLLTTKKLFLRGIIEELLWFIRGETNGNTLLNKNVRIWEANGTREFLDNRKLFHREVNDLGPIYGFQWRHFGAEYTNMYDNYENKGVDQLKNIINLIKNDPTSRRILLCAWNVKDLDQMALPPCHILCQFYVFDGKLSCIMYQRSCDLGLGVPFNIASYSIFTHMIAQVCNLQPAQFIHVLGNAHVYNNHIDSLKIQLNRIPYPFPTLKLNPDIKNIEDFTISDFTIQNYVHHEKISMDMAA
- assayComment: biochemical
pKi: −log10 of the molar value.
Label Fulfilled when pKi is at or above 9; anything below gets Not fulfilled.

Take a look at these entries with their results.
Does pKi meet or surpass 9 for `CCCCCCc1nc(N)nc(N)c1-c1ccccc1` ? Fulfilled

Is pKi for `Nc1nc(N)c(-c2cccc(Cl)c2)c(CCCc2ccccc2)n1` at or above 9? Not fulfilled

Lab note: next molecule to report on.
Could you tell me if the measured pKi of `COC(=O)CCCc1nc(N)nc(N)c1-c1ccccc1` reaches 9 or more? Not fulfilled
